# assay: in vitro
# Type: cell-based
# condition_details: human, hs578bst cells; HS578 Bst, Thy (n = 3 ± SEM); read-out: Cytotoxicity
quantity: CC50

Exercise: Let me know recorded CC50 for C[n+]1ccc(-c2c3nc(c(-c4cc[n+](C)cc4)c4ccc([nH]4)c(-c4cc[n+](C)cc4)c4nc(c(-c5cc[n+](C)cc5)c5ccc2[nH]5)C=C4)C=C3)cc1 [TMPyP4] , thanks.
Key: > 100 µM

====

# Tested on: MCF-7
# assay: Cytotoxicity (MTT) MCF-7
# Type: cell-based, human
# condition_details: mcf-7 cells
pIC50: −log10 of the molar value.
quantity: pIC50

Exercise: Given `C[n+]1ccc(-c2c3nc(c(-c4cc[n+](C)cc4)c4ccc([n-]4)c(-c4cc[n+](C)cc4)c4nc(c(-c5cc[n+](C)cc5)c5ccc2[n-]5)C=C4)C=C3)cc1.[Cl-].[Cl-].[Cl-].[Cl-].[Pt+2]` , respond with its pIC50.
Key: < 4.00
